- ASSAY INFO: Concentration of ofloxacin in periodontal fluid in the pockets after local administration
- Type: in vivo, volunteers
- CONDITION DESCRIPTION: human, periodontal fluid, 0.06 mg inserted into the periodontal pocket, for longer than 5 h, read-out: concentration in the pocket maintained
MEASUREMENT TYPE: concentration at 5 h

Find the recorded concentration at 5 h belonging to CC1COc2c(N3CCN(C)CC3)c(F)cc3c(=O)c(C(=O)O)cn1c23 (stereo not shown) and report it.
> 70 µg/mL

====

- ASSAY INFO: Concentration of ofloxacin in periodontal fluid in the pockets after local administration
- Assay type: in vivo, volunteers
- CONDITION DESCRIPTION: human, periodontal fluid, 0.06 mg/pocket, 24 h, 8 pockets of 4 subjects
MEASUREMENT TYPE: concentration at 24 h
Please give the number followed by its unit.

Find the recorded concentration at 24 h belonging to CC1COc2c(N3CCN(C)CC3)c(F)cc3c(=O)c(C(=O)O)cn1c23 (stereo not shown) and report it.
16600 ng/mL
